measured.target: T1, Siglec-7-ECD (human, UniProt Q9Y286 19-353)
T1 construct: also called p75; AIRM
T1 sequence (Q9Y286 19-353 limits assumed): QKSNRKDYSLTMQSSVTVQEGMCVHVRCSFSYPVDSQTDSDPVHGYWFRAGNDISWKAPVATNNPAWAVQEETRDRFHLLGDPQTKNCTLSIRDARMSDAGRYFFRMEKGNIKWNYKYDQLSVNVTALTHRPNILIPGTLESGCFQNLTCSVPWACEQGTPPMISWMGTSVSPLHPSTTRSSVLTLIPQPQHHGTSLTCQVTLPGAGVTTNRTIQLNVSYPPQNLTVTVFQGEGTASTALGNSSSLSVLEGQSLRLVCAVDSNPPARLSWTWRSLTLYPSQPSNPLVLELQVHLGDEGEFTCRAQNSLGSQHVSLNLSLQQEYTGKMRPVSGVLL
protocol.text: monovalent Fab; bio-layer interferometry (ForteBio) per Methods
pKd: −log10 of the molar value.
endpoint: pKd

pKd reading for humanized 16H11-derived Fab, VH AK417-8 / VL AK439-5 (Fab, V domains shown, Measured as monovalent Fab; also called No. 22) VH: QVQLVQSGAEVKKPGSSVKVSCKASGYDFSNFWMNWVRQAPGQGLEWMGGIYPGDGEINYAQKFQGRVTITADESTSTAYMELSSLRSEDTAVYYCARDDYLRAMDVWGQGTMVTVSS VL: DIQMTQSPSSLSASVGDRVTITCRASQNIHNYLAWYQQKPGKAPKFLLYSAKRLEDGVPSRFSGSGSGTDYTLTISSLQPEDFATYYCQHFWSSPYTFGQGTKLEIK : 9.60

pKd reading for humanized 16H11-derived Fab, VH AK444-2 / VL AK418-2 (Fab, V domains shown, Measured as monovalent Fab; also called No. 24; VH444-2 and VL418-2) VH: QVQLVQSGAEVKKPGSSVKVSCKASGYDFSNFWMNWVRQAPGQGLEWMGQIYPGDGEIKYNQKFQGRVTITADESTSTAYMELSSLRSEDTAVYFCARDDYLRAMDYWGQGTLVTVSS VL: DIQMTQSPSSLSASVGDRVTITCRASGNIHNYLAWYQQKPGKAPKFLLYSAKRLESGVPSRFSGSGSGTDYTLTISSLQPEDFATYYCQHFWSSPYTFGGGTKVEIK : > 10.12

pKd reading for humanized 16H11-derived Fab, VH AK449-4 / VL AK418-2 (Fab, V domains shown, Measured as monovalent Fab; also called No. 28) VH: QVQLVQSGAEVKKPGSSVKVSCKASGYDFSNFWMNWVRQAPGQGLEWMGGIYPGDGEIKYNQKFQGRVTITADESTSTAYMELSSLRSEDTAVYYCARDDYLRAMDIWGQGTMVTVSS VL: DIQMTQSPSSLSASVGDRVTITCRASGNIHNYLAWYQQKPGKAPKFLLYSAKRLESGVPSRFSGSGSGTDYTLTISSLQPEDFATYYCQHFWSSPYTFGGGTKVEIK : 9.82 to 10.12

pKd reading for humanized 16H11-derived Fab, VH AK449-6 / VL AK448-3 (Fab, V domains shown, Measured as monovalent Fab; also called No. 31) VH: QVQLVQSGAEVKKPGSSVKVSCKGSGYDFSNFWMNWVRQAPGQGLEWMGGIYPGDGEIKYNQKFQGRVTITADESTSTAYMELSSLRSEDTAVYYCARDDYLRAMDIWGQGTMVTVSS VL: DIQMTQSPSSLSASVGDRVTITCRASQNIHNYLAWYQQKPGKAPKFLLYSAKRLESGVPSRFSGSGSGTDYTLTISSLQPEDFATYYCQHFWSSPYTFGQGTKLEIK : 10.00 to 10.30

pKd reading for humanized 16H11-derived Fab, VH AK441-2 / VL AK418-2 (Fab, V domains shown, Measured as monovalent Fab; also called No. 19; VH441-2 and VL418-2) VH: QVQLVQSGAEVKKPGSSVKVSCKGSGYDFSNFWMNWVRQAPGQGLEWMGQIYPGDGEIKYNQKFQGRVTLTADESTSTAYMELSSLRSEDTAVYYCARDDYLRAMDIWGQGTMVTVSS VL: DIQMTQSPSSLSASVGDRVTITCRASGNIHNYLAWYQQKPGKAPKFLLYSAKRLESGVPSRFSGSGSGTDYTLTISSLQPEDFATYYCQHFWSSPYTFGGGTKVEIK : > 10.12
